Recorded composite z-score for the following compounds
- SYSTEM_UNDER_TEST: Torsin-1A (Homo sapiens) (UniProt O14656)
- Sequence (O14656 whole entry, looked up): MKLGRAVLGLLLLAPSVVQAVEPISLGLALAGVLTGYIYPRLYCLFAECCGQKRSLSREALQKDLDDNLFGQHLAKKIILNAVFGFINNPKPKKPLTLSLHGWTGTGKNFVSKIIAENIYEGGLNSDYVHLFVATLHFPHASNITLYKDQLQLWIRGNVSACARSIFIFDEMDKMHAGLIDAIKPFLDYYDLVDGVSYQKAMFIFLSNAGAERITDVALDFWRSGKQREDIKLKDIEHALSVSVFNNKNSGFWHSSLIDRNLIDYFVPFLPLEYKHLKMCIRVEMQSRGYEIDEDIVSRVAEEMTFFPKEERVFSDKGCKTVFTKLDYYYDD
- TEST: torsin A binders from cell lysate, primary screen, small-molecule microarray, wild-type, 635/667 nm (AID 1149)
- STATED_CONDITIONS: COS7 hTOR1A-WT lysate, 635 nm fluorescence, higher = more signal
Answer with the value's number alone.

# input compound: `O=C1C[C@]2(c3ccc([N+](=O)[O-])cc3)C(=O)N(CCN3CCOCC3)c3cc(CO)ccc3[C@H]2N1CC12CC3CC(CC(C3)C1)C2` ; wanted: its composite z-score
-0.967

What do you have for CCOC(=O)C1=CCC(c2cc3ccccc3[nH]2)NC1 (stereo unspecified) ?
0.661

What do you have for `COC(=O)C1=C(C)N(Cc2ccccc2)[C@]23O[C@](C(=O)OC)(C(=O)N2[C@@H]1c1ccccc1)[C@H]1CCOC(=O)[C@H]13` ?
0.252

What do you have for CCCCCN1CC=CC23O[C@@H]4C=CCOC(=O)[C@@H]4[C@H]2C(=O)N(C(CO)C(C)C)[C@@H]3C1=O (stereo partly specified) ?
-1.34

----------
- TEST: small-molecule microarray binders of probe aShh, primary screen, biochemical, biotinylated probe, 635/667 nm fluorescence (AID 1114);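 note: probe is biotin-labelled aShh protein from a stem cell growth factor screen; measures binding of labelled protein to compounds printed on the slide; score merges feature fluorescence at 667 nm with signal-to-noise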
- STATED_CONDITIONS: higher = more signal
Decision: composite z-score >= -0.06 yields satisfied, all other cases yield not satisfied.

Sample answers from the record:
1) C[C@@H]1CC[C@H]2C(=O)O[C@H](COc3ccc(C(C)(C)C)cc3)CN2[C@H]1c1ccc(Br)cc1 | not satisfied
2) C=CC[C@@H]1C=C[C@H](ON=C2c3cc(OC)ccc3O[C@H](c3cccc(OC)c3)[C@H]2O)[C@@H](CO)O1 | not satisfied
3) COc1ccc(O[C@H]2C=C[C@@H](c3ccccc3)O[C@@H]2COC(=O)N2CCCCC2)cc1 | satisfied

Test whether the compound CCCCCN1CC=CC23O[C@@H]4C=CCOC(=O)[C@@H]4[C@H]2C(=O)N(CCCCCCO)[C@@H]3C1=O (stereo partly specified) records composite z-score of -0.06 or higher.
satisfied

What do you have for `C=C(COC)/C(=C/C[C@H](OC(=O)c1ccncc1)c1ccc(CO)o1)c1cc(C(=O)OC)ccc1OC` ?
satisfied

What do you have for `COC(=O)CC=C[C@H](C)[C@@H](OCc1ccccc1Br)C(C)C` ?
not satisfied

----------
Recorded composite Z-score for the following compounds
- TEST: small-molecule microarray binders of probe aXIP, primary screen, biochemical, NeuroSMM set, 635/667 nm fluorescence (AID 1119);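 note: probe is the protein aXip251-270 applied at 1 µg/mL to compound-printed slides; binding of probe to printed compounds measured as 667 nm fluorescence plus signal to noise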
- STATED_CONDITIONS: higher = more signal, called active from +8 up or from −8 down
Answer with the value's number alone.

Consider the reported composite Z-score for these compounds:
1. COC(=O)[C@@H]1CC[C@H](C)[C@@H](c2ccc(C)cc2)N1C(=O)c1ccc(C=NOC(C)CN2CCCCc3nc(C)c(C)cc32)cc1 (some centres not stated) | -0.317
2. COc1cccc([C@@H]2Oc3ccc(Br)cc3C(=O)[C@H]2O)c1 | 0.38
3. C#CCCCON=C1C[C@@H](O)[C@@H](O)[C@@H]2[C@@H]3C(=O)N(CCC(=O)OCC)C(=O)[C@@H]3CC[C@@H]12 | -0.521
4. C[C@@H](c1ccccc1)N1C(=O)[C@H]2[C@H]3[C@H](O)[C@H](O)CC(=NOC[C@@H](O)COCc4ccco4)[C@@H]3CC[C@H]2C1=O | 0.528
5. COc1ccc(O[C@@H]2[C@H](O)CO[C@H]2C=CC#Cc2ccccc2)cc1 | 0.497

# input compound: `CCCC[C@H]1OB(O)C[C@H]2C1=C(C)C[C@H]1C(=O)N(C)C(=O)[C@H]12` ; wanted: its composite Z-score
0.506

What do you have for `CCOC(=O)NN=C1C[C@@H](O)[C@@H](O)[C@@H]2[C@@H]3C(=O)N(C4CCCCC4)C(=O)[C@@H]3CC[C@H]12` ?
-0.0662
